Entry source: PubChem BioAssay AID1996

Measured solubility kinetic of individual entries
# condition info: buffer; pH 7.4; 200.0 µM

compound: Cc1ccccc1-n1ccnc1SCC(=O)NCc1ccco1
value: > 49.1 µg/mL

Turning now to a further record.
Data request, read-out solubility kinetic, for "Oc1ccc(N=Cc2c(O)ccc3ccccc23)cc1"
< 0.6 µg/mL

====

# condition info: buffer; pH 7.4; 200.0 µM
Measured solubility kinetic of individual entries

query smiles: O=c1ccccn1CCOc1ccc(Cl)cc1
solubility kinetic: > 37.5 µg/mL
//
query smiles: CN1CCN(C(=O)Nc2ccccc2)CC1.O=C(O)C(=O)O
solubility kinetic: > 46.4 µg/mL

Turning now to a further record.
Data request, read-out solubility kinetic, for "O=C(COC(=O)c1ccc[n+]([O-])c1)Nc1ccc([N+](=O)[O-])cc1Cl"
> 52.8 µg/mL

====

# condition info: buffer; pH 7.4; 200.0 µM
Values of solubility kinetic greater than or equal to 10 µg/mL map to Satisfied; values below map to Not satisfied.

Example cases with answers are listed next.
compound: O=C1c2cccc3cccc(c23)C(=O)N1c1ccc(O)cc1
label value: Not satisfied
//
compound: O=C(Nc1cc2c(cc1Br)OCCO2)c1cccnc1
label value: Satisfied
//
compound: CC1CCCCC12NC(=O)N(CC(=O)N1CCN(c3ccccc3)CC1)C2=O (configuration not stated)
label value: Satisfied
//
compound: Cc1cccc(C)c1OCC(=O)Nc1ccc2c(c1)C(=O)NC2=O
label value: Not satisfied
//
compound: COc1ccc(Cl)cc1NC(=O)COC(=O)C1CCCCC1
label value: Not satisfied

Form field: solubility kinetic at least 10 µg/mL? Entry: Cc1ccccc1OCCNCC(C)O.O=C(O)C(=O)O (configuration not stated)
Satisfied

Form field: solubility kinetic at least 10 µg/mL? Entry: "Cc1ccc(OCC(=O)O/N=C(\N)c2ccccn2)cc1"
Satisfied

Form field: solubility kinetic at least 10 µg/mL? Entry: "O=C(Nc1nc2ccccc2s1)NC1CCCCC1"
Not satisfied

====

# condition info: buffer; pH 7.4; 200.0 µM
Measured solubility kinetic of individual entries
A number alone suffices; assume µg/mL.

Data request, read-out solubility kinetic, for "COc1ccc(OCCNS(=O)(=O)c2cccc([N+](=O)[O-])c2)cc1"
16.4

Data request, read-out solubility kinetic, for "Cc1cc(C(=O)OCC(=O)Nc2ccccc2)c(C)o1"
20

Data request, read-out solubility kinetic, for "O=C(CSc1cccc[n+]1[O-])N1CCCCCC1"
27

Data request, read-out solubility kinetic, for "CC(=O)c1ccccc1NS(=O)(=O)c1ccc2c(c1)CC(=O)N2"
29.9

====

# condition info: buffer; pH 7.4; 200.0 µM
Measured solubility kinetic of individual entries

Known results for compounds:
compound: O=C(CNC(=O)c1ccc(Cl)cc1)NCc1ccccn1
solubility kinetic: > 45.6 µg/mL

compound: CN(C)S(=O)(=O)c1ccc(Cl)c(NC(=O)CNC2(C)CCS(=O)(=O)C2)c1 (stereo not given)
solubility kinetic: > 63.6 µg/mL

compound: COC(=O)CC1C(=O)NCCN1C(=S)Nc1ccccc1Cl (stereo not given)
solubility kinetic: > 51.3 µg/mL

compound: O=S(=O)(NCc1cn2ccccc2n1)c1cccs1
solubility kinetic: > 44 µg/mL

Data request, read-out solubility kinetic, for "Cl.O=C(NCCCN1CCOCC1)C(=O)c1c[nH]c2ccccc12"
> 52.8 µg/mL

Data request, read-out solubility kinetic, for "COc1ccc(CNC(=O)COc2ccc(F)cc2)cc1"
> 43.4 µg/mL

Data request, read-out solubility kinetic, for "O=C(CCN1N=C(c2ccccc2)CCC1=O)NC1CCCC1"
> 47 µg/mL

Data request, read-out solubility kinetic, for "Cc1cc(C(=O)CCl)c(C)n1Cc1ccco1"
> 37.8 µg/mL

Data request, read-out solubility kinetic, for "Cl.O=C(CN1CCCCC1)c1ccc2c(c1)OCO2"
> 42.6 µg/mL

Data request, read-out solubility kinetic, for "O=C(COC(=O)Cc1c(Cl)cccc1Cl)NCc1ccco1"
> 51.3 µg/mL
